test: ATP-PPi exchange assay (amino acid activation); assay type: biochemical; conditions: nsAA pAcF
measured.quantity: kcat

get_value(item= pAcFRS.2: pAcFRS variant L65V, A167D, SEQ ID NO: 7 (protein) MDEFEMIKRNTSEIISEEELREVLKKDEKSALIGFEPSGKIHLGHYLQIKKMIDLQNAGFDIIIVLADLHAYLNQKGELDEIRKIGDYNKKVFEAMGLKAKYVYGSEFQLDKDYTLNVYRLALKTTLKRARRSMELIAREDENPKVAEVIYPIMQVNGCHYRGVDVDVGGMEQRKIHMLARELLPKKVVCIHNPVLTGLDGEGKMSSSKGNFIAVDDSPEEIRAKIKKAYCPAGVVEGNPIMEIAKYFLEYPLTIKRPEKFGGDLTVNSYEELESLFKNKELHPMRLKNAVAEELIKILEPIRKRL , readout=kcat) returns 5.28 ± 0.79 ×10^−2 s^−1

Others:
get_value(item= pAcFRS.t2: pAcFRS variant R257C, F261E, SEQ ID NO: 4 (protein) MDEFEMIKRNTSEIISEEELREVLKKDEKSALIGFEPSGKIHLGHYLQIKKMIDLQNAGFDIIILLADLHAYLNQKGELDEIRKIGDYNKKVFEAMGLKAKYVYGSEFQLDKDYTLNVYRLALKTTLKRARRSMELIAREDENPKVAEVIYPIMQVNGCHYRGVDVAVGGMEQRKIHMLARELLPKKVVCIHNPVLTGLDGEGKMSSSKGNFIAVDDSPEEIRAKIKKAYCPAGVVEGNPIMEIAKYFLEYPLTIKCPEKEGGDLTVNSYEELESLFKNKELHPMRLKNAVAEELIKILEPIRKRL , readout=kcat) returns 6.67 ± 1.27 ×10^−2 s^−1

// provenance: patent US10501734B2
